- System: DMS-273
- Method Description: NCI tumour cell line growth inhibition, 48 h
Active and inactive are the calls of the source. Cut-off read from the data, not from the text of the source: active = GI50 up to about 1.1 µM and inactive = higher. Where a SMILES comes first, the peptide text is derived from it. The star is where a group is joined. Boc = CC(C)(C)OC(=O)*
Metric Name: GI50

INPUT: May I ask what GI50 has been recorded for "CCCN(CCC)C(=O)C(=O)c1c(N)[nH]n(-c2ccccc2)c1=O" ?
OUTPUT: > 100 µM (inactive)

INPUT: Same lookup for "COC(=O)N/N=C(\C)c1sc(-c2nc(C)c(/C(C)=N/NC(=O)OC)s2)nc1C" , please.
OUTPUT: 95.9 µM (inactive)

INPUT: Then what about the compound CCN(CC)CC(O)CNc1ccc(NCC(O)CCl)c2c1C(=O)c1ccccc1C2=O (centres undefined) ?
OUTPUT: 3.33 µM (inactive)

INPUT: Another compound: "C[Si](C)(C)[C@@]1([Se]c2ccccc2)CC[C@@H]1C(=O)c1ccccc1"
OUTPUT: 59.3 µM (inactive)

INPUT: Moving on to the next compound: "COc1ccc(S(=O)(=O)N[C@H](C(=O)O)c2ccccc2)cc1"
OUTPUT: > 100 µM (inactive)

INPUT: Also Cc1ccc2c(c1)-c1c3c(nn1-c1ccccc1)-c1ccccc1SC3O2 (centres undefined) , if possible.
OUTPUT: > 100 µM (inactive)

INPUT: How about this compound: CSCCC(NC(=O)C(CC(C)C)NC(=O)C1CCCN1C(=O)C(Cc1ccccc1)NC(=O)C(Cc1ccccc1)NC(=O)C(CCC(=O)O)NC(=O)OC(C)(C)C)C(N)=O (centres undefined) (Boc-EFFPLM-NH2; configuration not given here)
OUTPUT: > 100 µM (inactive)

INPUT: Also, "ClCCN(CC#CCCCC#CCN(CCCl)CCCl)CCCl" please.
OUTPUT: 4 µM (inactive)

INPUT: Do the same for "Cc1nc(N)c(-c2ccccc2)s1" please
OUTPUT: 39.9 µM (inactive)

---

- System: TK-10
- Method Description: NCI tumour cell line growth inhibition, 48 h
Active and inactive are the calls of the source. Cut-off read from the data, not from the text of the source: active = GI50 up to about 1.1 µM and inactive = higher.
Metric Name: GI50

INPUT: Looking for the measured GI50 of "N#CC(C#N)=C/C=C(\Sc1c(Cl)c(Cl)nc(Cl)c1Cl)c1ccc(Cl)cc1" , can you help?
OUTPUT: 21.2 µM (inactive)

INPUT: One more compound: "N#CSCc1cccc(Nc2cc(=O)[nH]c(=O)[nH]2)c1"
OUTPUT: > 100 µM (inactive)

INPUT: For "CC(C)(C)c1cc(C(=O)/C=C/c2cc[nH]n2)cc(C(C)(C)C)c1O" then?
OUTPUT: 1.54 µM (inactive)

INPUT: What would you report for "CSC(=S)N(C)C" ?
OUTPUT: > 100 µM (inactive)

INPUT: Now consider O=C1CCC2(c3ccccc3)Nc3ncccc3N12 (stereo not given) .
OUTPUT: > 100 µM (inactive)

INPUT: Note, next up: "CC(=O)O[C@H]1CC[C@@]2(C)C(=CC[C@@H]3[C@@H]2CC[C@]2(C)C(=N/O)/C(=C/c4ccc([N+](=O)[O-])cc4)C[C@@H]32)C1"
OUTPUT: 8.43 µM (inactive)

INPUT: Also "C=CC1(c2ccc(OC)cc2)OCCCO1" , if possible.
OUTPUT: > 100 µM (inactive)

INPUT: Moving on to "Cc1nc(N)c(N2CCN(S(=O)(=O)N(Cc3ccccc3)Cc3ccccc3)CC2)c(O)n1"
OUTPUT: 26.5 µM (inactive)

INPUT: Could you do the same for "Cc1cccc2c1nc1n2C(=O)c2ccccc2-1" , please?
OUTPUT: > 100 µM (inactive)

INPUT: Now give it for "CC(=O)NNC(=S)N/C=C1/C(=O)Oc2ccccc2C1=O" too.
OUTPUT: > 100 µM (inactive)

---

I'd be grateful if you could share measured GI50 for these entries.
- System: A498
- Method Description: NCI tumour cell line growth inhibition, 48 h
Activity calls are given as the source filed them. No stated cut-off is given here; in the data, active = GI50 up to about 1.1 µM and inactive = higher.

INPUT: I have this molecule here, CCCCCCCCCCCCCCCCCCOCC(O)COP(=O)(O)OCC1OC(n2cc(F)c(=O)[nH]c2=O)CC1O (configuration not stated) , and I need its recorded GI50.
OUTPUT: 2.66 µM (inactive)

INPUT: Another molecule to check: "O=S(=O)(O)CCCc1cccc2ccccc12"
OUTPUT: > 100 µM (inactive)

INPUT: Continue with Cc1c2cccc(Sc3ccccc3)c2c2c3c(cccc13)[S+](c1ccccc1)C2 (configuration not stated)
OUTPUT: 2.65 µM (inactive)

INPUT: Could you do the same for "C/C(=N\NC(N)=S)c1ccc2c(c1)Sc1ccccc1O2" , please?
OUTPUT: 2.59 µM (inactive)

INPUT: Another molecule to look at: "NC(=O)NC(=O)c1cccc(NC(=O)CCl)c1"
OUTPUT: 2.55 µM (inactive)

INPUT: Please answer likewise for "O=C(c1ccccc1)c1nc2ccc(Cl)cc2cc1C(Br)Br"
OUTPUT: 1.79 µM (inactive)

INPUT: // repeat for "O=C1c2cc(-c3ccccc3)cnc2S(=O)(=O)N1c1ccc(Br)cc1" and report
OUTPUT: > 100 µM (inactive)

INPUT: And "O=c1[nH]c(=O)n(COCc2ccccc2)cc1Nc1ccc(Br)cc1" ?
OUTPUT: > 100 µM (inactive)

INPUT: Same thing, different molecule: C=CCC1(OC(C)=O)C2OC(=O)C1(O)OCC2O (configuration not stated)
OUTPUT: > 100 µM (inactive)

INPUT: Also CN1CCC(SC2Cc3cc(Cl)ccc3Sc3ccccc32)CC1 (configuration not stated) ?
OUTPUT: 16.1 µM (inactive)

INPUT: Now the same for "COc1cccc(-n2c3nc(=O)n(C)c(=O)c-3nc3ccccc32)c1"
OUTPUT: 34.5 µM (inactive)

INPUT: Another molecule to look at: C#CCNC(=O)NCCCCC(NC(C)=O)C(=O)NCc1ccccc1 (configuration not stated)
OUTPUT: > 100 µM (inactive)

INPUT: What do you have for "O=C(CSc1nc2ccc(I)cc2c(=O)n1Cc1ccccc1)N/N=C/c1ccccc1" ?
OUTPUT: 15.2 µM (inactive)

INPUT: What about this molecule? Cc1cccc2c1C(=O)C(C1OC(=O)c3ccccc31)C2 (configuration not stated)
OUTPUT: > 100 µM (inactive)

INPUT: Similarly, "O=C(N/N=C1/C(=O)c2c3ccccc3cc3cccc1c23)c1ccccc1" ?
OUTPUT: 22.1 µM (inactive)

INPUT: Lookup CCOc1ccc(NCC2CC/C(=C\c3ccc(O)cc3)C2=O)cc1 (configuration not stated)
OUTPUT: 18.2 µM (inactive)

INPUT: Another molecule: "C(=N\c1cnc2ccccc2c1)/c1ccc2ccccc2n1"
OUTPUT: > 100 µM (inactive)

INPUT: Can you check O=C(NC1C2CC3CC(C2)CC1C3)c1ccncn1 (configuration not stated) next?
OUTPUT: > 100 µM (inactive)

INPUT: Repeat for the following molecule: "O=C(C#CP(=O)(O)c1ccccc1)c1ccccc1"
OUTPUT: > 100 µM (inactive)

INPUT: Another: "COc1ccc(NC(=O)C/C(C)=N\N=C(N)N)c([N+](=O)[O-])c1"
OUTPUT: > 100 µM (inactive)

INPUT: How about "CC(=O)O[C@H]1CC[C@@]2(C)C(=CC[C@@H]3[C@@H]2CC[C@]2(C)C(=N/O)/C(=C/c4ccc([N+](=O)[O-])cc4)C[C@@H]32)C1" ?
OUTPUT: 4.71 µM (inactive)

INPUT: How about this molecule: "N#CSCc1cccc(Nc2cc(=O)[nH]c(=O)[nH]2)c1"
OUTPUT: > 100 µM (inactive)

---

- System: A498
- Method Description: NCI tumour cell line growth inhibition, 48 h
Activity calls are given as the source filed them. Rule as the data show it: active = GI50 up to about 1.1 µM and inactive = higher.
Metric Name: GI50

INPUT: Any idea what its GI50 is? The molecule is "O=C(CCN(C(=O)O)S(=O)(=O)c1ccc(NC(=O)c2ccccc2)cc1)Nc1ccccc1"
OUTPUT: > 100 µM (inactive)

INPUT: Next: "Cc1ccc(S(=O)(=O)N/N=C/C2(c3ccccc3)c3ccccc3-c3ccccc32)cc1"
OUTPUT: 18.6 µM (inactive)

INPUT: Also COC(=O)C(CC1=C(O)Nc2ccccc2N1)/C(=N/NC(N)=O)C(=O)Nc1ccccc1C (centres undefined) , if possible.
OUTPUT: > 100 µM (inactive)

INPUT: Again, but for "Cc1cc(C)nc(NS(=O)(=O)c2ccc(Nc3c4ccccc4nc4c(C(=O)N5CCN(CCO)CC5)ccc(Cl)c34)cc2)n1"
OUTPUT: > 100 µM (inactive)

---

For each record, write down the corresponding GI50.
- System: SF-539
- Method Description: NCI tumour cell line growth inhibition, 48 h
Active and inactive are the calls of the source. Cut-off read from the data, not from the text of the source: active = GI50 up to about 1.1 µM and inactive = higher. Where a SMILES comes first, the peptide text is derived from it.

INPUT: Find GI50 (SF-539) for the entry "Cc1ccc(S(=O)(=O)NCCCN(CCCNS(=O)(=O)c2ccc(C)cc2)S(=O)(=O)c2ccc(C)cc2)cc1"
OUTPUT: > 100 µM (inactive)

INPUT: Please give the result for "O=C1/C(=C/c2ccccc2)CCc2ccc(Cl)nc21" too.
OUTPUT: 3.61 µM (inactive)

INPUT: Similarly, "O=C(C#CP(=O)(O)c1ccccc1)c1ccccc1" ?
OUTPUT: > 100 µM (inactive)

INPUT: Another compound: "O=C(O)c1c(-c2c3ccc(=O)cc-3oc3cc(O)ccc23)cc2ccccc2c1-c1ccccc1"
OUTPUT: > 100 µM (inactive)

INPUT: Then what about the compound "COC(=O)N/N=C(\C)c1sc(-c2nc(C)c(/C(C)=N/NC(=O)OC)s2)nc1C" ?
OUTPUT: > 100 µM (inactive)

INPUT: Entry to check: "O=C(NC/C=C/CO)c1ccccc1"
OUTPUT: > 100 µM (inactive)

INPUT: Now consider COc1nc(=O)n(C2CC(F)C(CO)O2)cc1C (configuration not stated) and answer again.
OUTPUT: > 100 µM (inactive)

INPUT: Queued: "C=CC1(c2ccc(OC)cc2)OCCCO1"
OUTPUT: > 100 µM (inactive)

INPUT: Item: "CC12O[Te]34OC1(C)C(C)(O3)C2(C)O4"
OUTPUT: 15.9 µM (inactive)

INPUT: Can you handle "NC(=O)OCc1c(-c2ccccc2)nn(-c2ccccc2)c1COC(N)=O" next?
OUTPUT: > 100 µM (inactive)

INPUT: Moving on to "COc1ccc(NC(=O)C/C(C)=N\N=C(N)N)c([N+](=O)[O-])c1"
OUTPUT: > 100 µM (inactive)

INPUT: Proceed to "COc1ccc(C(N)=O)c(OC)c1OCc1ccccc1"
OUTPUT: > 100 µM (inactive)

INPUT: How about CC1NC(=O)CNC(=O)CNC(=O)C(Cc2ccc(O)cc2)NC(=O)C(C(C)C)NC(=O)C(C)NC1=O (configuration not stated) (cyclo(GGAAVY); configuration not given here) ?
OUTPUT: > 100 µM (inactive)

INPUT: Further, for "COc1cc(C[S+]2CCCC2)c(SC)cc1C[S+]1CCCC1" ?
OUTPUT: > 100 µM (inactive)

INPUT: Same read-out for "O=c1c2c(-c3ccccc3)c3ccccc3nc2cnn1-c1ccccc1" ?
OUTPUT: > 100 µM (inactive)

INPUT: Same lookup for "O=S(=O)(O)CCCc1cccc2ccccc12" , please.
OUTPUT: > 100 µM (inactive)

INPUT: Here is the next compound: "O=C(NC(Nc1ccc(F)cc1)(C(F)(F)F)C(F)(F)F)C(C(F)(F)F)C(F)(F)F"
OUTPUT: 21.4 µM (inactive)

INPUT: Please do the same for "CCOC(=O)/C(C(=O)Nc1cccc(C(F)(F)F)c1)=C(/N)N1CCOCC1" as well.
OUTPUT: > 100 µM (inactive)

INPUT: Queued: CC12CCC(C(=O)OC1=O)C2(C)C (configuration not stated)
OUTPUT: > 100 µM (inactive)

INPUT: Please answer likewise for "CC1(C)N=C(N)N=C(N)N1c1cccc(OCc2cccc([N+](=O)[O-])c2)c1"
OUTPUT: 17.6 µM (inactive)

INPUT: Queued: "N#Cc1c([N+](=O)[O-])cc(C(F)(F)F)cc1[N+](=O)[O-]"
OUTPUT: 5.94 µM (inactive)

INPUT: And what about the compound COc1ccc(CC2C3=C(CCCC3)CCN2C)cc1 (configuration not stated) ?
OUTPUT: > 100 µM (inactive)
